assay: clinical; settings: female, human, in vivo, ip, 5 mg/m2, AUC
assay_endpoint: AUC
// unit must come after the numeric part

Asked: Quick check: AUC of CC[C@@]1(O)C(=O)OCc2c1cc1n(c2=O)Cc2cc3c(CN(C)C)c(O)ccc3nc2-1 [topotecan, Topotecan] ?
Given back: 81 ng·h/mL

====

experiment: clinical; conditions: female, human, in vivo, ip, T1/2 of lactone in this study (discussion)
assay_endpoint: half-life (h)
// units = h; emit number, no label

Asked: Quick check: half-life of CC[C@@]1(O)C(=O)OCc2c1cc1n(c2=O)Cc2cc3c(CN(C)C)c(O)ccc3nc2-1 ?
Given back: 5.5
